Numbers sourced from paper PMC7826789.

- System: MRCKA;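 note: KINOMEscan scanMAX binding as percent activity remaining versus control; lower means stronger binding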
- Construct: gene CDC42BPA
- Protocol conditions: Compound Concentration (nM):1000
Measured endpoint: Percent Control (%)
Numbers only, in %.

In the examples that follow, each entry is paired with its recorded Percent Control.
>>> df
                                   compound  assay_system  measured_endpoint  observed_measurement
0  COc1ccc2[nH]c3c4[nH]c5ccc(OC)cc5c4c4c(c3c2c1)C(=O)NC4=O [GW296115X]         MRCKA    Percent Control                    76
1  NS(=O)(=O)c1ccc(N/N=C2\C(=O)Nc3ccc(C(=O)NCCc4c[nH]cn4)cc32)cc1 [GW300660X]         MRCKA    Percent Control                   100
2  CN(C)CCNC(=O)Nc1ccc(N(C)c2ccnc(Nc3ccc(CS(C)(=O)=O)cc3)n2)cc1.Cl [GW830900A]         MRCKA    Percent Control                    95
3  NS(=O)(=O)c1ccc(N/N=C2\C(=O)Nc3ccc(Cl)cc32)cc1 [GW280670X]         MRCKA    Percent Control                   100
4  NS(=O)(=O)c1ccc(N/N=C2\C(=O)Nc3ccc(-c4cnco4)cc32)cc1         MRCKA    Percent Control                   100

Provide Percent Control for all items below, preserving their order.
1. COc1cc(C)c(N(C)C(=O)CN(C)C)cc1Nc1nc(Nc2cccc(F)c2C(N)=O)c2cc[nH]c2n1
2. Cl.c1ccc(Cc2nc3ccc(Nc4ncnc5ccccc45)cc3[nH]2)cc1 [GR269666A]

100
100

Respond only with Percent Control recorded for Cl.O=C(Nc1ccc(Oc2ccc3[nH]c(NC(=O)c4ccccc4)nc3c2)cc1)Nc1cc(C(F)(F)F)ccc1F [GW709042A]
85
